# target-or-system: AhR (Homo sapiens)
# Construct: endogenous in cells; host or cells: AZ-AHR (HepG2)
# experiment: AhR reporter assay, HepG2 cells stably expressing pCYP1A1 luciferase (AZ-AHR)
# Format: cell-based
# cond: AZ-AHR cells, 1 nM, fold vs DMSO
# Method: Incubations were performed in four technical replicates.
Examples of compounds with documented FOLD INDUCTION (AZ-AHR luciferase) follow.

| compound | measurement-units | FOLD INDUCTION (AZ-AHR luciferase) |
| --- | --- | --- |
| CC#CC(O)(c1ccncc1)c1cc2ccccc2n1S(=O)(=O)c1ccccc1 (racemic) | fold | 0.8 |
| OC(Cc1cc2ccccc2[nH]1)(c1ccncc1)c1cc2ccccc2[nH]1 (stereo not drawn) | fold | 0.5 |
| OC(c1ccncc1)(c1cc2ccccc2[nH]1)c1cc2ccccc2[nH]1 | fold | 0.9 |

----------
# target-or-system: hPXR (Homo sapiens, UniProt O75469)
# Sequence (O75469 111-434 limits assumed): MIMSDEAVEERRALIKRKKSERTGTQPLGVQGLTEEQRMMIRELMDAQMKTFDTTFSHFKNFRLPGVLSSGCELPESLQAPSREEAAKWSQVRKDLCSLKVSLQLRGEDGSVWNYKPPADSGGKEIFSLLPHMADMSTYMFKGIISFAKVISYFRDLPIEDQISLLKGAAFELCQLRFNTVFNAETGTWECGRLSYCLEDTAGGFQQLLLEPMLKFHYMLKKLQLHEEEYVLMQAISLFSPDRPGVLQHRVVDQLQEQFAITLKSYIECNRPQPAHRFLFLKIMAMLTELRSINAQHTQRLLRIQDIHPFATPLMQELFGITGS

| given-smiles | IC50 |
| --- | --- |
| O=C(c1ccncc1)c1cc2ccccc2n1S(=O)(=O)c1ccccc1 | 3.77 µM |

----------
# target-or-system: AhR (Homo sapiens)
# Construct: endogenous in cells; host or cells: AZ-AHR (HepG2)
# Sequence (P35869 11-848): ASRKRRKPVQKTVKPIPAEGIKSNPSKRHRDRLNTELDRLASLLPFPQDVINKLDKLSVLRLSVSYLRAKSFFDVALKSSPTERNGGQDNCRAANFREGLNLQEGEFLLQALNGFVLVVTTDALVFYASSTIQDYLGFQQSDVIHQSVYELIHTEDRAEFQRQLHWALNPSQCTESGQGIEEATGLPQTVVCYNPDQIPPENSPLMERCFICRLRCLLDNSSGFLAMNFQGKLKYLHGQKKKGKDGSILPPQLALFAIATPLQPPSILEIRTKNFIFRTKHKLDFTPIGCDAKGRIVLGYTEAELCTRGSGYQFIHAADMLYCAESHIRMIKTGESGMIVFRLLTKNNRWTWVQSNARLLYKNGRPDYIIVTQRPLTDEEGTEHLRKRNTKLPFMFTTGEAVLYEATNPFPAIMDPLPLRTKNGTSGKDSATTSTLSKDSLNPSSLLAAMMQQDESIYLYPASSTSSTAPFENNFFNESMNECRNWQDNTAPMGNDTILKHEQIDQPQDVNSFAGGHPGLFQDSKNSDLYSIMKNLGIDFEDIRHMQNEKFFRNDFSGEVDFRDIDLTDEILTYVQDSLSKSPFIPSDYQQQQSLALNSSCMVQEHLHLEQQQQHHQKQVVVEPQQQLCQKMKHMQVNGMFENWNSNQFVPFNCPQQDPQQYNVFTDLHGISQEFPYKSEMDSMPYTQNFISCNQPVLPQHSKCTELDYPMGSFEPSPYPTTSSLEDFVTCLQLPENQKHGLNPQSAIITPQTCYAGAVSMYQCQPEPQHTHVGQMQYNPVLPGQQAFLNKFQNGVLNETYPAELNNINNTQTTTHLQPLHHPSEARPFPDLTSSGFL
# experiment: AhR reporter assay, HepG2 cells stably expressing pCYP1A1 luciferase (AZ-AHR)
# Format: cell-based
# cond: AZ-AHR cells, 10 nM, fold vs DMSO
endpoint: FOLD INDUCTION (AZ-AHR luciferase) (fold)

| molecule | target-or-system | endpoint | reported-value |
| --- | --- | --- | --- |
| OC(c1ccncc1)(c1cc2ccccc2[nH]1)c1cc2ccccc2[nH]1 | AhR (Homo sapiens) | FOLD INDUCTION (AZ-AHR luciferase) | 0.9 |
| O=S(=O)(c1ccccc1)n1c(C(O)(Cc2cc3ccccc3[nH]2)c2ccncc2)cc2ccccc21 (racemic) | AhR (Homo sapiens) | FOLD INDUCTION (AZ-AHR luciferase) | 0.738 |
| CC#CC(O)(c1ccncc1)c1cc2ccccc2n1COCC (centres unmarked) | AhR (Homo sapiens) | FOLD INDUCTION (AZ-AHR luciferase) | 0.644 |
| CC#CC(O)(c1ccncc1)c1cc2ccccc2n1S(=O)(=O)c1ccccc1 (racemic) | AhR (Homo sapiens) | FOLD INDUCTION (AZ-AHR luciferase) | 0.7 |
| O=S(=O)(c1ccccc1)n1c(C(O)Cc2cc3ccccc3[nH]2)cc2ccccc21 (racemic) | AhR (Homo sapiens) | FOLD INDUCTION (AZ-AHR luciferase) | 0.7 |

----------
# Tested on: Cyp3a11
# experiment: PXR target gene expression in hPXR mice (mice expressing the human PXR gene) after FKK6 gavage
# Type: in vivo, mouse
# cond: both sexes, C57BL/6-Nr1i2tm1(NR1I2)Arte (hPXR mice), mouse, large intestine, oral, 500 μM, 5 doses (60 h), individual mice; read-out: Cyp3a11 fold induction, Large Intestine

| compound | fold induction at 60 h, 500 µM |
| --- | --- |
| C#CCC(O)(c1ccncc1)c1cc2ccccc2n1S(=O)(=O)c1ccccc1 (stereo not shown) | 0.87 |

----------
# target-or-system: AhR (Homo sapiens)
# Construct: endogenous in cells; host or cells: AZ-AHR (HepG2)
# experiment: AhR reporter assay, HepG2 cells stably expressing pCYP1A1 luciferase (AZ-AHR)
# Type: cell-based
# cond: human; AZ-AHR cells, positive control, fold vs UT, concentration not given

| compound | target-or-system | fold induction at 24 h |
| --- | --- | --- |
| Clc1cc2c(cc1Cl)Oc1cc(Cl)c(Cl)cc1O2 [TCDD, 2,3,7,8‐tetrachlorodibenzo‐p‐dioxin, reference compound] | AhR (Homo sapiens) | 485 |

----------
# target-or-system: PXR (Homo sapiens, UniProt O75469)
# experiment: PXR reporter (p3A4-luc luciferase) assay in LS180 cells transiently transfected with wild-type PXR
# cond: 1 nM
Listed below: aver (mean luciferase signal of H1-H4) values for each entry.
endpoint: aver (mean luciferase signal of H1-H4)

| compound | endpoint | reported-value |
| --- | --- | --- |
| CC#CC(O)(c1ccncc1)c1cc2ccccc2n1COCC (centres unmarked) | aver (mean luciferase signal of H1-H4) | 4365.5 |
| O=S(=O)(c1ccccc1)n1c(C(O)c2ccncc2)cc2ccccc21 (racemic) | aver (mean luciferase signal of H1-H4) | 3470.0 |
| Cc1[nH]c2ccccc2c1C(c1c(C)[nH]c2ccccc12)c1c(C)[nH]c2ccccc12 [FKK999, reference compound] | aver (mean luciferase signal of H1-H4) | 2509.3 |
| O=S(=O)(c1ccccc1)n1c(C(O)(Cc2cc3ccccc3[nH]2)c2ccncc2)cc2ccccc21 (racemic) | aver (mean luciferase signal of H1-H4) | 4342.5 |
| C#CCC(O)(c1ccncc1)c1cc2ccccc2n1S(=O)(=O)c1ccccc1 (centres unmarked) | aver (mean luciferase signal of H1-H4) | 5692.0 |
| OC(c1ccncc1)(c1cc2ccccc2[nH]1)c1cc2ccccc2[nH]1 | aver (mean luciferase signal of H1-H4) | 2792.0 |
| CC#CC(O)(c1ccncc1)c1cc2ccccc2n1S(=O)(=O)c1ccccc1 (racemic) | aver (mean luciferase signal of H1-H4) | 5303.8 |
| CCOCn1c(C(O)(Cc2cc3ccccc3[nH]2)c2ccncc2)cc2ccccc21 (racemic) | aver (mean luciferase signal of H1-H4) | 4233.7 |

----------
Recorded FOLD INDUCTION (AZ-AHR luciferase), one value per entry.
# target-or-system: AhR (Homo sapiens)
# Construct: endogenous in cells; host or cells: AZ-AHR (HepG2)
# Sequence (P35869 11-848): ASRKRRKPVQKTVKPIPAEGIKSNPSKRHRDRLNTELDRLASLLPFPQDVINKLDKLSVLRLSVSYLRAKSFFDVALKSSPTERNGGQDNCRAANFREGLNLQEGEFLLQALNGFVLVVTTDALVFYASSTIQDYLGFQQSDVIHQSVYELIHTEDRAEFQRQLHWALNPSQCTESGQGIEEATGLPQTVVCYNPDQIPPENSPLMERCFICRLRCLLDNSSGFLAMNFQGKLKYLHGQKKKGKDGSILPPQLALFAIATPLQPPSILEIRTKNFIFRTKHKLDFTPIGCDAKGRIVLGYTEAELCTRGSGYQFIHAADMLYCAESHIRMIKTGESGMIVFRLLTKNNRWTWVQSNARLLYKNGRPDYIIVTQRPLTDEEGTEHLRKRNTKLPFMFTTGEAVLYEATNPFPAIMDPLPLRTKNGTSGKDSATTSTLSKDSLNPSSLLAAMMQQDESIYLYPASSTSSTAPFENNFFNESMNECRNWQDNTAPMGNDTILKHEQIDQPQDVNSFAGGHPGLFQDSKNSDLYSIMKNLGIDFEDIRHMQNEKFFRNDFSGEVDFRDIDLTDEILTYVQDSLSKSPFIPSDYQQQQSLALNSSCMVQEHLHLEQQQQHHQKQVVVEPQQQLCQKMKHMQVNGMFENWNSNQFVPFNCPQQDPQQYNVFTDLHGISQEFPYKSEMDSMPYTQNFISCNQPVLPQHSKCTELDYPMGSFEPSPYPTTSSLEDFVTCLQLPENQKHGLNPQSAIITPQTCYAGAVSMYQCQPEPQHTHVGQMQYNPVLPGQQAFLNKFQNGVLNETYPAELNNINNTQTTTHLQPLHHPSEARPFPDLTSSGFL
# experiment: AhR reporter assay, HepG2 cells stably expressing pCYP1A1 luciferase (AZ-AHR)
# Format: cell-based
# cond: AZ-AHR cells, 1 nM, fold vs DMSO

| compound | target-or-system | FOLD INDUCTION (AZ-AHR luciferase) [fold] |
| --- | --- | --- |
| CCOCn1c(C(O)(Cc2cc3ccccc3[nH]2)c2ccncc2)cc2ccccc21 (racemic) | AhR (Homo sapiens) | 0.6 |
| CC#CC(O)(c1ccncc1)c1cc2ccccc2n1COCC (centres unmarked) | AhR (Homo sapiens) | 0.8 |
| O=S(=O)(c1ccccc1)n1c(C(O)c2ccncc2)cc2ccccc21 (racemic) | AhR (Homo sapiens) | 0.7 |
| O=S(=O)(c1ccccc1)n1c(C(O)Cc2cc3ccccc3[nH]2)cc2ccccc21 (racemic) | AhR (Homo sapiens) | 0.6 |
| O=S(=O)(c1ccccc1)n1c(C(O)(Cc2cc3ccccc3[nH]2)c2ccncc2)cc2ccccc21 (racemic) | AhR (Homo sapiens) | 0.746 |
